Origin of values: ChEMBL document CHEMBL1770079

assay: Intrinsic clearance in human microsomes; type: ADME, Microsome
Attribute: microsomal CLint
Express your answer in µL/min/mg, writing the number without its unit.

Examples with answers:
Cc1ccc(C(NC(=O)c2ccccc2O)C(=O)Nc2c(C)cccc2C)s1 (stereo not drawn) = 43
CCOc1ccc2oc(C(=O)NC(CS(C)(=O)=O)c3nc4ccccc4[nH]3)c(C)c2c1 (stereo not drawn) = 3

Here's the next entry for you.
**Q:** Please indicate microsomal CLint recorded for CCOc1ccc2oc(C(=O)NC(c3ccccc3)c3nc4ccccc4[nH]3)c(C)c2c1 (stereo not drawn)
**A:** 14

###

assay: Solubility of the compound in 0.1 M phosphate buffer; format: physicochemical
The following compounds are listed with their measured solubility values.
Give your result in µM as a bare value.

Cc1ccc(C(NC(=O)c2ccccc2O)C(=O)Nc2c(C)cccc2C)s1 (configuration not stated) = 68

Then this compound:
**Q:** Please supply the value of reported solubility for the item CCOc1ccc2oc(C(=O)NC(CCSC)c3nc4ccccc4[nH]3)c(C)c2c1 (configuration not stated)
**A:** 17

###

target: fMet-Leu-Phe receptor (Homo sapiens); assay: Agonist activity at FPR1 in human neutrophils assessed as increase in calcium mobilization by FLIPR assay
Measured property: pEC50
Hey, just a heads up that pEC50 is the negative log base 10 of the concentration in molar.

**Q:** GET pEC50 | system: fMet-Leu-Phe receptor (Homo sapiens) | item: CCOc1ccc2oc(C(=O)NC(CCSC)c3nc4cnccc4[nH]3)c(C)c2c1 (stereo unspecified)
**A:** 5.80

###

target: fMet-Leu-Phe receptor (Homo sapiens, UniProt P21462); assay: Antagonist activity at FPR1; assay type: functional
Measured property: IC50 (µM)
Express the result in µM but write the number alone.

**Q:** For CC(C)C(C(=O)O)N1C(=O)/C(=C2/C(=O)N(C)c3ccccc32)SC1=S (stereo unspecified) , write its IC50.
**A:** 5.01

###

target: fMet-Leu-Phe receptor (Homo sapiens, UniProt P21462); test: Antagonist activity at FPR1 in human neutrophils assessed as inhibition of fMLF-stimulated calcium mobilization by FLIPR assay; assay type: functional
Measured property: pIC50
Note: pIC50 values are expressed as the negative base-10 logarithm of concentration in M.

Cc1ccc(C(NC(=O)c2ccccc2O)C(=O)Nc2c(C)cccc2C)s1 (configuration not stated) = 6.40

Read the next record carefully.
**Q:** Look up and state reported pIC50 for CCOc1ccc2oc(C(=O)NC(CCSC)c3nc4ccccc4[nH]3)c(C)c2c1 (configuration not stated)
**A:** 6.30

###

biological target: fMet-Leu-Phe receptor (Homo sapiens); experiment: Displacement of [3H]fMLF from human FPR1 expressed in CHO cells by scintillation counting; assay type: cell-based
# reported IC50; entries follow
State the value, then name its unit.

Cc1ccc(C(NC(=O)c2ccccc2O)C(=O)Nc2c(C)cccc2C)s1 (configuration not stated) = 100 nM

Alright, here's another molecule for you.
**Q:** Dear colleague, please send me the reported IC50 for CCOc1ccc2oc(C(=O)NC(CCSC)c3nc4ccccc4[nH]3)c(C)c2c1 (configuration not stated) when you can.
**A:** 31.6 nM

###

Molecular target: fMet-Leu-Phe receptor (Homo sapiens) (UniProt P21462)
Sequence (whole entry): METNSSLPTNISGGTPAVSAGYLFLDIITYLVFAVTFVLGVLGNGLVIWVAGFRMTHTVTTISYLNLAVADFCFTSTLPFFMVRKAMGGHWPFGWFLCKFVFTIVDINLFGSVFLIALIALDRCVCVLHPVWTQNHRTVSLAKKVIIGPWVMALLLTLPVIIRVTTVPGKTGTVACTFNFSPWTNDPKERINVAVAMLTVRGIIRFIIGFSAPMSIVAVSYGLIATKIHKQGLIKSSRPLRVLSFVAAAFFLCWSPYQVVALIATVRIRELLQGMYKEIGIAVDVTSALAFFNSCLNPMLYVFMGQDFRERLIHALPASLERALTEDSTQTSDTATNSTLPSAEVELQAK
Assay: Agonist activity at FPR1 in human neutrophils assessed as increase in calcium mobilization by FLIPR assay
Type: functional
Set-up: concentration or dose not given beside the values
Conditions: concentration not given here
# maps each entry to its inhibition

In the examples that follow, each entry is paired with its recorded inhibition.
CSCCC(NC(=O)c1ccccc1)c1nc2ccccc2n1Cc1ccc(C#N)cc1 (stereo not given) = < 25%
CCOc1ccc2oc(C(=O)NC(CCSC)c3nc4ncccc4[nH]3)c(C)c2c1 (stereo not given) = < 25%
CCOc1ccc2oc(C(=O)NC(CCSC)c3nc4ncncc4[nH]3)c(C)c2c1 (stereo not given) = < 25%

**Q:** # return inhibition of CSCCC(NC(=O)c1ccccc1)c1nc2ccccc2n1Cc1ccccc1 (stereo not given) (system: fMet-Leu-Phe receptor (Homo sapiens) (UniProt P21462))
**A:** < 25%

**Q:** Supply inhibition measured with fMet-Leu-Phe receptor (Homo sapiens) (UniProt P21462) for CSCCC(NC(=O)c1sccc1Cl)c1ncc(-c2ccccc2)[nH]1 (stereo not given) .
**A:** < 25%

###

target: fMet-Leu-Phe receptor (Homo sapiens); assay: Intrinsic activity at FPR1 in human neutrophils assessed as increase in calcium mobilization by FLIPR assay relative to fMLF; assay type: functional
Overview of recorded IC50 for various molecules
Express your answer in µM, writing the number without its unit.

Solved cases (6 shown):
CCOc1ccc2oc(C(=O)NC(CCSC)c3nc4ncncc4[nH]3)c(C)c2c1 (centres undefined) = 5.01
CSCCC(NC(=O)c1ccc(C)cc1)c1nc2ccccc2[nH]1 (centres undefined) = 10
Cc1cccc(C)c1NC(=O)C(c1ccccc1)N(C)C(=O)c1ccccc1O (centres undefined) = 10
CSCCC(NC(=O)c1oc2ccccc2c1C)c1nc2ccccc2[nH]1 (centres undefined) = 3.98
CCOc1ccc2oc(C(=O)NC(CCSC)c3nc4ccccc4[nH]3)c(C)c2c1 (centres undefined) = 0.501
Cc1ccc(C(NC(=O)c2ccccc2O)C(=O)Nc2c(C)cccc2C)s1 (centres undefined) = 0.316

**Q:** Supply measured IC50 of CSCCC(NC(=O)c1ccccc1)c1nc2ccccc2n1Cc1ccccc1 (centres undefined) in your reply.
**A:** 2.51

**Q:** Answer with the recorded IC50 for the molecule listed here: Cc1cccc(C)c1NC(=O)C(NC(=O)c1ccccc1O)c1cn(C)cn1 (centres undefined)
**A:** 1.58

**Q:** Supply reported IC50 belonging to this molecule: CSCCC(NC(=O)c1occc1C)c1nc2ccccc2[nH]1 (centres undefined)
**A:** 3.98

**Q:** Please list IC50 recorded for the molecule CSCCC(NC(=O)c1sccc1Cl)c1nc2ccccc2[nH]1 (centres undefined)
**A:** 2

**Q:** Please give the documented IC50 of O=C(NC(C(=O)Nc1ccccc1)c1ccc(Cl)cc1)c1ccccc1O (centres undefined)
**A:** 5.01

###

Biological target: fMet-Leu-Phe receptor (Mus musculus)
Sequence (P33766 whole entry): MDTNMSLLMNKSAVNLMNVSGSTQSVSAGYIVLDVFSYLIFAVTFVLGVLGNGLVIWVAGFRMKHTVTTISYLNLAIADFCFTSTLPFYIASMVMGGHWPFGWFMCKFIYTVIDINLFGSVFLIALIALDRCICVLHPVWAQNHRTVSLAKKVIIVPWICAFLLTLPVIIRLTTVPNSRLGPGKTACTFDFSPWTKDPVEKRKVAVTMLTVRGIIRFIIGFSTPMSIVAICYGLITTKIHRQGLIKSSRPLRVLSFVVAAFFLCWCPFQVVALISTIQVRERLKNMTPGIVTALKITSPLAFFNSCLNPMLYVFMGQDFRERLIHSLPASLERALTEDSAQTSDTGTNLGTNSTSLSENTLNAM
Assay: Antagonist activity at mouse FPR1 expressed in HEK293 cells assessed as inhibition of fMLFF-stimulated intracellular calcium mobilisation by FLIPR assay
Measured property: IC50 (µM)
Field: numeric (µM). Do not append units.

**Q:** Retrieve IC50 measured for Cc1ccc(C(NC(=O)c2ccccc2O)C(=O)Nc2c(C)cccc2C)s1 (stereo unspecified) and print it.
**A:** 25.1

###

target: fMet-Leu-Phe receptor (Homo sapiens, UniProt P21462); assay: Intrinsic activity at FPR1 in human neutrophils assessed as increase in calcium mobilization by FLIPR assay relative to fMLF; format: functional
Measured property: IC50 (nM)
Report the value in nM with no unit label.

Some compounds with known IC50 results, for comparison:
CCOc1ccc2oc(C(=O)NC(CCSC)c3nc4cnccc4[nH]3)c(C)c2c1 (stereo not drawn) = 1000
CCC[C@H](NC(=O)c1oc2ccc(OCC)cc2c1C)c1nc2ccccc2[nH]1 = 1000
CCOc1ccc2oc(C(=O)N[C@H](CSC)c3nc4ccccc4[nH]3)c(C)c2c1 = 631
CSCCC(NC(=O)c1cnccn1)c1nc2ccccc2[nH]1 (stereo not drawn) = 10000

**Q:** Under fMet-Leu-Phe receptor (Homo sapiens, UniProt P21462): report IC50 of Cc1cccc(C)c1NC(=O)C(NC(=O)c1ccccc1O)C1CCCCC1 (stereo not drawn) .
**A:** 794

**Q:** Tell me IC50 of Cc1cccc(C)c1NC(=O)C(NC(=O)c1ccccc1O)c1ccc(Cl)cc1 (stereo not drawn) when tested on fMet-Leu-Phe receptor (Homo sapiens, UniProt P21462).
**A:** 794

**Q:** Using fMet-Leu-Phe receptor (Homo sapiens, UniProt P21462) as the test system, report measured IC50 of O=C(NC(C(=O)NC1CCCCC1)c1ccc(Cl)cc1)c1ccccc1O (stereo not drawn) .
**A:** 2510

**Q:** GET IC50 where system = fMet-Leu-Phe receptor (Homo sapiens, UniProt P21462) and item = CSCCC(NC(=O)c1ccccc1O)c1nc2ccccc2[nH]1 (stereo not drawn)
**A:** 3980

**Q:** Identify measured IC50 obtained with fMet-Leu-Phe receptor (Homo sapiens, UniProt P21462) for CSCCC(NC(=O)c1ccccc1)c1nc2ccccc2[nH]1 (stereo not drawn) .
**A:** 5010

**Q:** Check fMet-Leu-Phe receptor (Homo sapiens, UniProt P21462) data and give IC50 for CSCCC(NC(=O)c1ocnc1C)c1nc2ccccc2[nH]1 (stereo not drawn) .
**A:** 10000

**Q:** Send back fMet-Leu-Phe receptor (Homo sapiens, UniProt P21462) IC50 of CSCCC(NC(=O)C1CCCCC1)c1nc2ccccc2[nH]1 (stereo not drawn) only.
**A:** 2510

**Q:** Give the observed IC50 of CCOc1ccc2oc(C(=O)NC(CS(C)(=O)=O)c3nc4ccccc4[nH]3)c(C)c2c1 (stereo not drawn) for fMet-Leu-Phe receptor (Homo sapiens, UniProt P21462).
**A:** 10000

**Q:** Provide measured IC50 on fMet-Leu-Phe receptor (Homo sapiens, UniProt P21462) for Cc1cccc(C(NC(=O)c2ccccc2O)C(=O)Nc2c(C)cccc2C)c1C (stereo not drawn) please.
**A:** 79.4

**Q:** Determine reported IC50 for CSCCC(NC(=O)c1sccc1Cl)c1ncc(-c2ccccc2)[nH]1 (stereo not drawn) ; test system: fMet-Leu-Phe receptor (Homo sapiens, UniProt P21462).
**A:** 6310

**Q:** Please indicate recorded IC50 of CSCCC(NC(=O)c1ccccc1)c1nc2ccccc2n1Cc1ccc(C#N)cc1 (stereo not drawn) measured with fMet-Leu-Phe receptor (Homo sapiens, UniProt P21462).
**A:** 316

**Q:** # assay system fMet-Leu-Phe receptor (Homo sapiens, UniProt P21462): give IC50 of Cc1cccc(C)c1NC(=O)C(NC(=O)c1ccccc1O)c1ccccc1 (stereo not drawn)
**A:** 1260

**Q:** Give reported IC50 for Cc1cccc(C)c1NC(=O)C(NC(=O)c1nc2ccccc2[nH]c1=O)c1ccc(Cl)cc1 (stereo not drawn) (fMet-Leu-Phe receptor (Homo sapiens, UniProt P21462))
**A:** 2510
